From: the supplement of paper PMC9170038

Please provide measured apparent KD of MS2 coat protein for the entries that follow.
Tested on: MS2 coat protein
PROTOCOL_NOTES: apparent KD of MS2 coat protein; designed switch direction (-1 OFF switch, 1 ON switch): -1; higher = weaker reporter binding
APPLIED_CONDITIONS: input ligand: microRNA oligo, concentration not stated
Number in nM, nothing else.

Fill in the blank: the reported apparent KD of MS2 coat protein of UACAUGAGGAUCACCCAUGUUUUGUCGUGUAUGGUAUUUAUCUAGGAUAUCAAUUUGUGUAUUUAUGAGAAGGAGAAUAUUAAU [JMF's solution 68] (Eterna round: R96, puzzle: Exclusion NG 3) is ____.
29.5

Field request: apparent KD of MS2 coat protein | item: GUCAGCUCGUGAGGAUAUACAUGCGUGCUUCGGCACGAAUUUAAGAUCACAUGAGGAUCACCCAUGUAGAAGGCACGAGCUGAU [ENG2/3-A2] (Eterna round: R96, puzzle: Exclusion NG 2)
896

Bench note: what apparent KD of MS2 coat protein did AGAGGACAUGAGGAUCACCCAUGUAAGGAUAUGCGGAGAGUUUGGAGAGGUCGGGUAGGCAGAAGGUACAGGAG [JR_Exclu1_Sub050] (Eterna round: R96, puzzle: Exclusion 1) show?
41
